Assay: Cell Viability - LYMP2-009 (AID 968);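 further: cells exposed to compound for 24 h at 37 °C; nearly all actives have a fitted effect of over 55% in size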
Conditions: LYMP2-009 lymphoblastoid cell viability; series mostly up to 92.2 µM
Description: NIH Chemical Genomics Center [NCGC] NIH Molecular Libraries Screening Centers Network [MLSCN] National Institutes of Environmental Health Sciences [NIEHS] National Toxicology Program [NTP] We have developed a 1536-well cell-based assay for quantitative high throughput screening (qHTS) against a number of cell lines to determine in vitro cytotoxicity of small molecules. […] 8. Detection; Luminescence; Viewlux plate reader […]
Results filed as inconclusive are left out. Active and inactive are the calls of the source. The call rests on the fitted dose curve; in most records, active means well fitted cell-killing curve with a large enough effect; inconclusive means small, poorly fitted or top-dose-only effect; inactive means flat fitted curve, though single readings scatter.
Respond using exactly one of the listed classes: yes (1) (active), no (0) (inactive)

## Task Please state the recorded outcome for this compound: O=[N+]([O-])c1ccccc1-c1ccccc1
## Result no (0)

## Task Please give the result for CCN(N=O)C(N)=O too.
## Result no (0)

## Task Please give the result for COP(=S)(OC)SCn1nnc2ccccc2c1=O too.
## Result no (0)

## Task Please give the result for C=COC(C)=O too.
## Result no (0)

## Task Please give the result for Nc1ccc(-c2ccc(N)cc2)cc1 too.
## Result no (0)

## Task Please give the result for O=[N+]([O-])/C=C/c1ccccc1 too.
## Result yes (1)

## Task Please give the result for CN=C=O too.
## Result no (0)

---

Test: Cell Viability - LYMP2-009 (AID 968);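 further: cells exposed to compound for 24 h at 37 °C; nearly all actives have a fitted effect of over 55% in size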
Settings: LYMP2-009 lymphoblastoid cell viability; series mostly up to 92.2 µM
Records with an inconclusive call do not appear. The source made the active and inactive calls. Calls follow the shape of the dose curve; as a rule, active = well fitted cell-killing curve with a large enough effect; inconclusive = small, poorly fitted or top-dose-only effect; inactive = flat fitted curve, though single readings scatter.
Respond using exactly one of the listed classes: active, inactive

## Task Please state the recorded outcome for this compound: Cl/C=C\Cl
## Result inactive

## Task Please give the result for C/C=C/CC#N too.
## Result inactive

## Task Please give the result for Nc1ccc([N+](=O)[O-])cc1N too.
## Result inactive

## Task Please give the result for BrCC(Br)C1CCC(Br)C(Br)C1 (stereo unspecified) too.
## Result inactive

## Task Please give the result for Cc1cccc(C)c1N too.
## Result inactive

## Task Please give the result for CCCC[N+](=O)[O-] too.
## Result inactive

## Task Please give the result for S=C1NCCN1 too.
## Result inactive

## Task Please give the result for Clc1ccc(Cl)c(Cl)c1 too.
## Result inactive

## Task Please give the result for O=C(O)C(Cl)(Cl)Br too.
## Result inactive

## Task Please give the result for Brc1ccc(Oc2ccc(Br)cc2Br)c(Br)c1 too.
## Result inactive

## Task Please give the result for Cc1cc(-c2cc(C)c(N)c(C)c2)cc(C)c1N too.
## Result inactive

## Task Please give the result for CCSC(=O)N1CCCCCC1 too.
## Result inactive

## Task Please give the result for ClCC(Cl)CCl too.
## Result inactive

## Task Please give the result for Cc1ccc(N)c(N)c1 too.
## Result active

## Task Please give the result for CN(C)C(=O)Nc1cccc(C(F)(F)F)c1 too.
## Result inactive

## Task Please give the result for O=C(Cc1ccccc1)OCc1ccccc1 too.
## Result inactive

## Task Please give the result for COC(C)(C)C too.
## Result inactive

## Task Please give the result for CCCN(CCC)c1c([N+](=O)[O-])cc(C(F)(F)F)cc1[N+](=O)[O-] too.
## Result inactive

## Task Please give the result for O=C(O)CCl too.
## Result inactive

## Task Please give the result for ClC(Cl)C(Cl)Cl too.
## Result inactive

## Task Please give the result for CCC[N+](=O)[O-] too.
## Result inactive
